Test system: T-47D breast
Test: NCI tumour cell line growth inhibition, 48 h
Give GI50 for every item shown.

Quick one: GI50 for Nc1ccccc1C#C/C=C\C#Cc1ccccc1F ?
8.05 µM

Need GI50 of O=CN1N=C(c2ccc(Nc3ccnc4cc(Cl)ccc34)cc2)CC1c1ccc(Cl)cc1 (stereo not given) , thanks.
1.56 µM

Data request, read-out GI50, for CNc1ncc2cc(Oc3ccc(F)cc3F)c(=O)n(C)c2n1
> 25 µM

# input compound: CC(=O)n1c(-c2ccc(Cl)c(Cl)c2)cn(-c2ccc(Cl)cc2)c1=O ; wanted: its GI50
19.3 µM

Record request: GI50 value, item COc1cc2nc(N3CCC[C@@H](NC4=CC(=O)c5ccccc5C4=O)C3)nc(N)c2cc1OC
1.95 µM

Item under review: O=C(NN1C(=O)CSC12CCC(c1ccccc1)CC2)c1[nH]c2ccc(F)cc2c1-c1ccccc1 (stereo not given) . Reported GI50?
33.5 µM

Could you share which GI50 value was measured for CCC(=O)c1c(C(F)(F)F)n([O-])c2ccccc2[n+]1=O ?
2.27 µM

Any idea what its GI50 is? The compound is CN(CCCN(C)CCC1CCCCC1)CCC1CCCCC1
1.64 µM

For Nc1cc(-c2ccccc2)n(C(=O)Nc2ccc(Oc3ccccc3)cc2)n1 , what is its reported GI50?
86.2 µM

Entry Cn1ncnc1C1c2n[nH]c(=O)c3cc(F)cc(c23)NC1c1ccc(F)cc1 (stereo not given) : reported GI50 = ?
> 100 µM

---

Can you tell me TGI for the items I'm about to list?
Test system: HOP-92 NSCLC
Assay: NCI tumour cell line growth inhibition, 48 h

What TGI value was documented for this compound, Cc1cc(-c2ccc(C(=O)C(c3ccccc3)(c3ccccc3)c3ccccc3)[nH]2)on1 ?
51.8 µM

Recorded TGI for CC1(C)N=C(Oc2ccccc2)n2nccc2N1 , please?
> 100 µM

Find the recorded TGI belonging to CCOC(=O)/C(=N/Nc1ccc(Cl)cc1)N1C(=S)C=C(C)NN(C)C1=S and report it.
> 100 µM

Could you share which TGI value was measured for Cc1ccc(N2C(=O)C(=O)N(/N=C3\C(=O)Nc4ccccc43)C2=S)cc1 ?
> 100 µM

Quick one: TGI of CC(C)(C)N=c1n(C(C)(C)C)oc(=O)n1-c1ccccc1 ?
> 50 µM

---

Tested on: COLO 205 colon
Test: NCI tumour cell line growth inhibition, 48 h
*1 amine or outer side, *2 acyl side, *3 side chain or, on linkers, in order; H or OH if unused. Where a SMILES comes first, the peptide text is derived from it. [ ]: non-standard residue; d: D form. The star is where a group is joined. X31 = CC(=O)N(C)SCC(N[*:1])C(=O)[*:2]; Fmoc = O=C(OCC1c2ccccc2-c2ccccc21)*; For = O=C*
Please go through the items and note down their TGI.

Give COLO 205 colon TGI for CCCOP(=S)(N1CC1)N1CC1
> 100 µM

Form field: TGI recorded for COc1cc(-c2oc3c(OC)c(O)cc(O)c3c(=O)c2OC)ccc1O with COLO 205 colon (enter value)
> 100 µM

Short answer please: TGI, COLO 205 colon, entry O=C1c2c(ccc3c2CCCC3)CC1Cc1ccc2c(c1)CCCC2 (centres undefined)
> 100 µM

For COLO 205 colon, provide TGI of CC(=O)N(C)SCC(NC(=O)C(Cc1ccccc1)NC(=O)OCC1c2ccccc2-c2ccccc21)C(=O)NC(Cc1ccccc1)C(=O)NC(Cc1cn(C=O)c2ccccc12)C(=O)NC(CCCCNC(=O)OCC1c2ccccc2-c2ccccc21)C(=O)NC(C(=O)NC(CSN(C)C(C)=O)C(=O)NC(C(N)=O)C(C)O)C(C)O (centres undefined) (Fmoc-F[X31]FW(For)K(Fmoc)T[X31]T-NH2; configuration not given here) please.
> 100 µM

# value lookup — system COLO 205 colon, readout TGI, item O=C1Cc2ccccc2CCc2ccsc21
> 100 µM

// fetch COLO 205 colon TGI for Cn1c(=O)sc2cc(C(=S)N3CCN(c4ccccc4)CC3)ccc21
> 100 µM

Entry O=C1NN=C(c2ccc([N+](=O)[O-])cc2)C1n1nc(-c2ccccc2)c2ccccc2c1=O (centres undefined) , system COLO 205 colon: what TGI was measured?
> 100 µM

Param readout= TGI; system= COLO 205 colon; entry= CC1=C(C(=O)NC(C)(C)C)CC(C(=O)NC(C)(C)C)C(C)N1 (centres undefined) ; returns value.
> 100 µM

For COLO 205 colon, provide TGI of COc1cc2c(Cc3cc(OCc4ccccc4)ccc3N)nccc2c(OC)c1OC please.
> 10 µM

What measured TGI is associated with Cc1cc(Cl)ccc1Nc1nc(C(F)(F)F)ccc1C(=O)Nc1cccc(C(F)(F)F)c1 on COLO 205 colon?
6.13 µM

I'm curious: which TGI was measured for O=C(O)C1CC2CC(=O)C1C2 (centres undefined) tested on COLO 205 colon?
> 100 µM

For the record Cc1ccc(F)c2c(=O)cc(-c3ccccc3)[nH]c12 , what value of TGI is listed for COLO 205 colon?
> 100 µM

Provide value of TGI for this record tested with COLO 205 colon: CC(C)(C)N=c1n(C(C)(C)C)oc(=O)n1-c1ccccc1
> 50 µM

Request body: readout TGI, system COLO 205 colon, query CC#Cc1c(C#CC)c(OC)c2c(c1OC)C(=O)c1ccccc1C2=O . Return the value.
> 100 µM

Give COLO 205 colon TGI for CC(=O)n1c(-c2ccc(Cl)c(Cl)c2)cn(-c2ccc(Cl)cc2)c1=O
> 100 µM

What TGI appears in the records for this compound with COLO 205 colon? O=C1C(NS(=O)(=O)c2ccccc2)=C(N(Cc2ccccc2)Cc2ccccc2)C(=O)c2ccccc21
> 100 µM

Request body: readout TGI, system COLO 205 colon, query NCCCCCNOCCCN . Return the value.
> 100 µM

Enter reported TGI observed with COLO 205 colon for CC(=O)O[C@H]1CC[C@@]2(C)C(=C/C(=N\[N+](=O)[O-])[C@H]3C4CCC([C@H](C)CCCC(C)C)[C@@]4(C)CCC32)C1 (some centres undefined)
> 100 µM

Param readout = TGI; param system = COLO 205 colon; param query = CC(C)c1cccc(C(C)C)c1NC(=O)C(=O)C1SC(=S)NC1=O (centres undefined) ; response: value
> 100 µM
